# measured-on: TLR7 (Homo sapiens)
# Construct: Human peripheral blood mononuclear cells (PBMCs) consist of lymphocytes, monocytes and dendritic cells that express TLR7, TLR8 and TLR9; endogenous in cells
# Sequence (Q9NYK1 27-1049): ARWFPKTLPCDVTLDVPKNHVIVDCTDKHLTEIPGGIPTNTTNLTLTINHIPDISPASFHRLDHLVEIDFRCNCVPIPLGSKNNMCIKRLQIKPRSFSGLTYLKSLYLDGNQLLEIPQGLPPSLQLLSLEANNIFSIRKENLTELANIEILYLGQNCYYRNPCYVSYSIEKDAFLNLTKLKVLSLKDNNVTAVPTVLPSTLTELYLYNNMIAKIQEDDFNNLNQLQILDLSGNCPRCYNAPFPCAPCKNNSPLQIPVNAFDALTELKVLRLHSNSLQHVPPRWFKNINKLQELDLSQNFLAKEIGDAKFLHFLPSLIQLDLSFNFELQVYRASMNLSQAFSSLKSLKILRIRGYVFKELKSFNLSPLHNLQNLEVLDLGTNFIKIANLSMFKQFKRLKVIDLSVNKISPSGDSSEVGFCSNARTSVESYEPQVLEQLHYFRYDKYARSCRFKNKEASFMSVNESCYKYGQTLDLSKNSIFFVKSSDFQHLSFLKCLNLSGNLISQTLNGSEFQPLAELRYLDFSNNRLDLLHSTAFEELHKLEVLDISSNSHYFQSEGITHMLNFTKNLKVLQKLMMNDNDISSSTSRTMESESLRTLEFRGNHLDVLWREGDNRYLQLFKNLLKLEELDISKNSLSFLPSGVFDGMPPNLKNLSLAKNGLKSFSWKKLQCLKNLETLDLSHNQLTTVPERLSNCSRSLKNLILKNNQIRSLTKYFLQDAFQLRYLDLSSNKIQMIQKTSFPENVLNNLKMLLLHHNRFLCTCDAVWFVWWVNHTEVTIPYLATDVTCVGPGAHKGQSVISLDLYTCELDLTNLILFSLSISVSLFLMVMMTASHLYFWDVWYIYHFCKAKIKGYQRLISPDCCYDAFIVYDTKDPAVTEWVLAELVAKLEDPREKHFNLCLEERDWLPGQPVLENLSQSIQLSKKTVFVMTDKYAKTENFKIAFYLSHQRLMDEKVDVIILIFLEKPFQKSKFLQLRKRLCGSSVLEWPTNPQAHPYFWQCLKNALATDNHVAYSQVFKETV
# protocol-text: TLR7 human PBMC cell-based assay (antagonist, GS-986 stimulated cytokine release)
# details: human PBMCs; TLR7 agonist GS-986 400 nM, 6 hours; cytokines (IL-6 and IFNα) in supernatant; read-out: TLR-7 EC50
pEC50: −log10 of the molar value.
pEC50 below 8 gives class 0; pEC50 at or above it gives class 1.

>>> discrete_label("Cc1c(-c2[nH]c3cc(C4CCN(CC(N)=O)CC4)sc3c2C(C)C)ccc2nn(C)c(=O)n12")
"class 0"
>>> discrete_label("Cc1cc(-c2[nH]c3cc(C(=O)N4C5CNCC4C5)sc3c2C(C)C)cc(C)n1")
"class 0"
>>> discrete_label("Cc1cc(-c2[nH]c3cc(C(=O)N4CC(N(C)C)C4)sc3c2C(C)C)cn2ncnc12")
"class 0"
>>> discrete_label("Cc1cc(-c2[nH]c3cc(C(=O)N4CCNC[C@@H]4C)sc3c2C(C)C)cn2ncnc12")
"class 1"
>>> discrete_label("Cc1cc(-c2[nH]c3cc(C(=O)N4CCC[C@H]4CN)sc3c2C(C)C)cn2ncnc12")
"class 1"
>>> discrete_label("CC(C)c1c(-c2cc(C(F)(F)F)c3ncnn3c2)[nH]c2cc(C(=O)N3CCNCC3)sc12")
"class 1"
>>> discrete_label("Cc1cc(-c2[nH]c3cc(C4CCCC5(CNC5)C4)sc3c2C(C)C)cn2ncnc12 (stereo not drawn)")
"class 1"
>>> discrete_label("Cc1cc(-c2[nH]c3cc(C(=O)N[C@H]4CCNC4)sc3c2C(C)C)cc(C)n1")
"class 0"
>>> discrete_label("Cc1cc(-c2[nH]c3cc(C4CCC5(CC4)CN(C(=O)CN4CCCC4)C5)sc3c2C(C)C)cn2ncnc12")
"class 1"
>>> discrete_label("Cc1cc(-c2[nH]c3cc(C4CCN(CCO)CC4)sc3c2C(C)C)cn2ncnc12")
"class 1"
>>> discrete_label("Cc1cc(-c2[nH]c3cc(CN4CC5(C4)CS(=O)(=O)C5)sc3c2C(C)C)cn2ncnc12")
"class 0"
>>> discrete_label("Cc1cc(-c2[nH]c3cc(-c4cn(C5CCN(CCO)CC5)nn4)sc3c2C(C)C)cn2ncnc12")
"class 1"
>>> discrete_label("Cc1cc(-c2[nH]c3cc(C(=O)N4CC[C@@H](N(C)C)C4)sc3c2C(C)C)cn2ncnc12")
"class 1"
>>> discrete_label("Cc1c(-c2[nH]c3cc(C(=O)N(C)C4CCNCC4)sc3c2C(C)C)cn2ncnc2c1C")
"class 1"
>>> discrete_label("Cc1cc(-c2[nH]c3cc(C4CCN(C(=O)C5CNC5)CC4)sc3c2C(C)C)cn2ncnc12")
"class 1"
>>> discrete_label("Cc1cc(-c2[nH]c3cc(C4CCN(C(=O)C5CCN(C)C5)CC4)sc3c2C(C)C)cn2ncnc12 (stereo not drawn)")
"class 1"
>>> discrete_label("Cc1cc(-c2[nH]c3cc(C(=O)N4CCNCC4c4ccc(C(F)(F)F)cc4)sc3c2C(C)C)cn2ncnc12 (stereo not drawn)")
"class 0"
>>> discrete_label("CCc1c(-c2cc(C)c3ncnn3c2)[nH]c2cc(-c3nc4ccc(N5CCNCC5)nc4[nH]3)sc12")
"class 0"
